Each record here notes measured pKd.
# tested_target: Oxytocin receptor (Cavia porcellus)
# test_protocol: Inhibition of radioligand [3H]OT binding to oxytocin receptor (OT) in guinea pig myometrium membrane
Scale: pKd equals -log10([C]), with [C] in mol/L.

1) CN(CC(=O)N[C@@H](CCCNC(=N)N)C(=O)NCC(N)=O)C(=O)[C@@H]1CSSC2(CCCCC2)CC(=O)N[C@@H](Cc2ccccc2)C(=O)N[C@@H](Cc2ccccc2)C(=O)N[C@@H](CCC(N)=O)C(=O)N[C@@H](CC(N)=O)C(=O)N1 [[Mca1,D-Phe2,Sar7]AVP]; 8.15
2) CCOc1ccc(C[C@H]2NC(=O)CC3(CCCCC3)SSC[C@@H](C(=O)N(C)CC(=O)N[C@@H](CCCN=C(N)N)C(=O)NCC(N)=O)NC(=O)[C@H](CC(N)=O)NC(=O)[C@H](CCC(N)=O)NC(=O)[C@H]([C@@H](C)CC)NC2=O)cc1 [[Mpa1,D-Tyr(OEt)2,Sar7]AVT]; 7.82
3) CCOc1ccc(C[C@H]2NC(=O)CC3(CCCCC3)SSC[C@@H](C(=O)N(C)CC(=O)N[C@@H](CCCN=C(N)N)C(=O)NCC(N)=O)NC(=O)[C@H](CC(N)=O)NC(=O)[C@H](CCC(N)=O)NC(=O)[C@H](Cc3ccccc3)NC2=O)cc1 [[Mca1,D-Tyr(OEt)2,Sar7]AVP]; 7.68

Turning now to a further record.
Q) Provide the documented pKd with Oxytocin receptor (Cavia porcellus) as the system for CC[C@H](C)[C@@H]1NC(=O)[C@@H](Cc2ccc(OC)cc2)NC(=O)CC2(CCCCC2)SSC[C@@H](C(=O)N(C)CC(=O)N[C@@H](CCCN=C(N)N)C(=O)NCC(N)=O)NC(=O)[C@H](CC(N)=O)NC(=O)[C@H](CCC(N)=O)NC1=O [[Mca1,D-Tyr(OMe)2,Sar7]AVT]
A) 7.74
